target: human ether-à-go-go-related gene (hERG) potassium channel (human, UniProt Q12809); assay: primary screen, population patch clamp on CHO cells stably expressing hERG; higher = less effect of the substance
Sequence (Q12809 whole entry, looked up): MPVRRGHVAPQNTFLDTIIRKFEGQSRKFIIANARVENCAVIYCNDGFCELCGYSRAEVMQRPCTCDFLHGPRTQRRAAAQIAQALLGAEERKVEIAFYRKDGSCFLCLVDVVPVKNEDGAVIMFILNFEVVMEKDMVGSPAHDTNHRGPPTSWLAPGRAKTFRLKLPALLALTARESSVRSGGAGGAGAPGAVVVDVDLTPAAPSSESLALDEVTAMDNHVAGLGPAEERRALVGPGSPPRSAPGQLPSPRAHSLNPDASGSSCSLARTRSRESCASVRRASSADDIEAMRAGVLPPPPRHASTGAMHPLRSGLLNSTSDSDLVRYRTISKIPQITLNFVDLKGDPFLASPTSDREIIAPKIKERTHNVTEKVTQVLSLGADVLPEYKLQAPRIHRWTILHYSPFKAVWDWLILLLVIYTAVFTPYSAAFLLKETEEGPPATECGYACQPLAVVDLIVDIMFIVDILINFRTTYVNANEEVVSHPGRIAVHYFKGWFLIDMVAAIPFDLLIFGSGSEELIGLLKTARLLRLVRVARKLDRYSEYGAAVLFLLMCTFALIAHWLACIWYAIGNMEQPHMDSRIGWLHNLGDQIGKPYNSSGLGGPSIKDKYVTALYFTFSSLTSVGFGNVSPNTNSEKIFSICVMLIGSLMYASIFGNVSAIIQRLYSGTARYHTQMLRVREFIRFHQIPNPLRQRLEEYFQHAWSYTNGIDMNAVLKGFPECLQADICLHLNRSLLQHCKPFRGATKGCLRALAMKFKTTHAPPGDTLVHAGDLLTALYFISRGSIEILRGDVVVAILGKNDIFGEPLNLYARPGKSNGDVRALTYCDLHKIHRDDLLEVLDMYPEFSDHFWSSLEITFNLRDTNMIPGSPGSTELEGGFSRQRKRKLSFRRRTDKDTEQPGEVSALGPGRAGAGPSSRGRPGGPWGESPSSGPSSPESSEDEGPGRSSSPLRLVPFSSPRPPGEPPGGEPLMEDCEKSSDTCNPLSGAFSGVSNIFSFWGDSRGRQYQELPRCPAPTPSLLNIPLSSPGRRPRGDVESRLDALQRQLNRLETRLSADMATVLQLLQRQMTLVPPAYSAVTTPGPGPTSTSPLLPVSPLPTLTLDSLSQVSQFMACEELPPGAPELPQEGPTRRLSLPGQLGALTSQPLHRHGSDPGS
The whole screen tested about 310,000 compounds, of which about 2,200 (0.71%) showed an effect of 50% or more. Effects have a minus sign here. The full list was thinned out, with strong results kept by preference.
Give measured hERG current change (%, negative = inhibition) at 1uM for each item. Keep answers brief.
// return numeric value only (unit: %, not printed)

Find the recorded hERG current change (%, negative = inhibition) at 1uM belonging to `O=C(Nc1ccnn1C1CCN(Cc2ccccn2)CC1)c1cccc(F)c1` and report it.
6.56

Find the recorded hERG current change (%, negative = inhibition) at 1uM belonging to `CCn1c(=NC(=O)CSCC(=O)Nc2nccs2)sc2ccccc21` and report it.
2.45

Find the recorded hERG current change (%, negative = inhibition) at 1uM belonging to CCN(CCn1cccn1)C(=O)CC1C(=O)NCCN1Cc1ccc(OC)c(OC)c1 (stereo not drawn) and report it.
2.76

Find the recorded hERG current change (%, negative = inhibition) at 1uM belonging to `OCC1(CCOc2ccccc2)CCN(Cc2ccccc2C(F)(F)F)CC1` and report it.
3.9

Find the recorded hERG current change (%, negative = inhibition) at 1uM belonging to `Nc1nc(CSc2nnnn2-c2ccc(Cl)cc2)nc(N2CCOCC2)n1` and report it.
11.5

Find the recorded hERG current change (%, negative = inhibition) at 1uM belonging to CC1CCCCN1CCNC(=O)CC1Oc2ccccc2NC1=O (stereo not drawn) and report it.
5.21

Find the recorded hERG current change (%, negative = inhibition) at 1uM belonging to `OCC1(CCOc2ccccc2)CCN(Cc2ccc3c(c2)OCCO3)CC1` and report it.
-31.2

Find the recorded hERG current change (%, negative = inhibition) at 1uM belonging to `CCOC(=O)/C(C#N)=C\c1c(C)cc(C)c(COC(C)=O)c1C` and report it.
15.6

Find the recorded hERG current change (%, negative = inhibition) at 1uM belonging to `CCOC(=O)c1csc(NC(C)=O)n1` and report it.
7.33

Find the recorded hERG current change (%, negative = inhibition) at 1uM belonging to O=[N+]([O-])c1ccc(OCC(O)CNCCNc2nccc(C(F)(F)F)n2)cc1 (stereo not drawn) and report it.
-77.9

Find the recorded hERG current change (%, negative = inhibition) at 1uM belonging to `CCN(CC(=O)N1CCOCC1)S(=O)(=O)c1ccccc1` and report it.
12.4

Find the recorded hERG current change (%, negative = inhibition) at 1uM belonging to Cc1cc(C(=O)OCC(=O)N2C(C)CCCC2C)c(C)o1 (stereo not drawn) and report it.
9.75

Find the recorded hERG current change (%, negative = inhibition) at 1uM belonging to `C#CCOc1ccc(Br)cc1C(c1c(C)[nH][nH]c1=O)c1c(C)[nH][nH]c1=O` and report it.
11.6

Find the recorded hERG current change (%, negative = inhibition) at 1uM belonging to `OCC1(CCOc2ccccc2)CCN(Cc2cc(Cl)ccc2O)CC1` and report it.
-0.875

Find the recorded hERG current change (%, negative = inhibition) at 1uM belonging to `CCCCNC(=S)NNC(=O)c1cc(C2CC2)nc2ccccc12` and report it.
13.2

Find the recorded hERG current change (%, negative = inhibition) at 1uM belonging to `Cc1ccc2nc(NCCO)nc(-c3ccccc3)c2c1` and report it.
1.36

Find the recorded hERG current change (%, negative = inhibition) at 1uM belonging to `NC(=O)C1CCN(CC(=O)Nc2cc(S(=O)(=O)N3CCOCC3)ccc2N2CCCC2)CC1` and report it.
-1.18

Find the recorded hERG current change (%, negative = inhibition) at 1uM belonging to CC1(c2ccc(OC(F)F)cc2)NC(=O)N(CC(=O)Nc2ccc(F)cc2)C1=O (stereo not drawn) and report it.
-15.6

Find the recorded hERG current change (%, negative = inhibition) at 1uM belonging to CC1(c2ccc(OC(F)F)cc2)NC(=O)N(CC(=O)Nc2ccccc2)C1=O (stereo not drawn) and report it.
-26.2

Find the recorded hERG current change (%, negative = inhibition) at 1uM belonging to `Cc1ccc(NC(=O)Nc2cccn(Cc3c(F)cccc3Cl)c2=O)cc1` and report it.
13.2

Find the recorded hERG current change (%, negative = inhibition) at 1uM belonging to CCC(NS(=O)(=O)c1ccc(C)cc1)C(=O)Nc1ccc(NC(C)=O)cc1 (stereo not drawn) and report it.
-1.54
